The reader will find reported growth inhibition values listed item by item below.
Assay: NCI Yeast Anticancer Drug Screen. Data for the mec2-1 strain (AID 157)
Details: S. cerevisiae mec2-1 strain, at 5.0 µM (retest, dose inferred, filed as 0.5), stronger effect = higher value
Compounds without any hit were thinned out: in the full panel of roughly 79,000, 15% have a hit. Calls of active or inactive are those of the source. Cut-off read from the data, not from the text of the source: active = growth inhibition above about 70%; inactive = the rest.
observation.type: growth inhibition

INSERT INTO measurements (compound, result) VALUES
  ('C/C=C1\SC(=S)NC1=O', '11% (inactive)'),
  ('COc1ccc(C(=O)Cc2nc3nnc(NC(=O)Nc4ccc(Cl)cc4)n3nc2CC(=O)c2ccc(OC)cc2)cc1', '7% (inactive)'),
  ('Cc1ccccc1[P+](C)(c1ccccc1C)c1ccccc1C', '18% (inactive)'),
  ('NCCSC1(O)C(=O)c2ccccc2-c2ccccc21 (stereo unspecified)', '84% (active)'),
  ('CN(C)CCC(/C=C/c1ccccc1)=N\Nc1ccc(Cl)cc1Cl', '32% (inactive)'),
  ('NNCc1cc(Cl)c2cccnc2c1O', '6% (inactive)'),
  ('CCCCCCCCCCCCCCCCNc1ccn(C2CC(OP(=O)(O)OCC3OC(n4cc(CC)c(=O)[nH]c4=O)CC3O)C(CO)O2)c(=O)n1 (stereo unspecified)', '26% (inactive)'),
  ('CC(CO)[C@H]1OC(=O)C=C2[C@@]13O[C@@H]3[C@H]1OC(=O)[C@@]3(C)[C@H]4O[C@H]4C[C@@]2(C)[C@@H]13 (stereo partly specified)', '47% (inactive)'),
  ('CCC[CH2][Sn]([CH2]CCC)([O]C(=O)c1cc(F)cc(F)c1)[O]C(=O)c1cc(F)cc(F)c1', '26% (inactive)'),
  ('CSc1nc(NN)cc(-c2ccccc2)n1', '24% (inactive)'),
  ('Cc1ccc2nc(-[n+]3cc4ccccc4cc3C)ccc2c1', '1% (inactive)'),
  ('CCCCCCCCCCCCCC(=O)OCC[N+](C)(C)C', '27% (inactive)'),
  ('CN(C)CCSc1cc(-c2ccccc2)c2ccccc2n1', '6% (inactive)'),
  ('COc1cc(C2=N/C(=C\c3ccccc3O)C(=O)O2)cc(OC)c1OC', '-8% (inactive)'),
  ('NC(=S)N/N=C/c1ccc(Cl)s1', '-8% (inactive)'),
  ('O=c1ccccn1CCc1cccc2cc(O)ccc12', '-2% (inactive)'),
  ('CC(=O)OC1(c2ccccc2)N=C(c2ccccc2)N=C1c1ccccc1 (stereo unspecified)', '4% (inactive)'),
  ('CC(C)(C)C(=O)/C=C/c1ccc2ccccc2n1', '-48% (inactive)'),
  ('CCOP(=O)(CCCOc1cc(Cl)c(Cl)cc1Cl)OCC', '2% (inactive)'),
  ('OCCOCCO[P+]1(OCCOCCO)n2c3ccc2C(c2ccccc2)=C2C=CC(=N2)C(c2ccccc2)=c2ccc(n21)=C(c1ccccc1)C1=NC(=C3c2ccccc2)C=C1', '100% (active)'),
  ('Cc1cc(I)cc(I)c1O', '2% (inactive)'),
  ('O=C1Nc2ccccc2/C1=C\c1ccccn1', '22% (inactive)'),
  ('COCCCNC(=S)N/N=C/c1cc(Cl)cc(Cl)c1O', '15% (inactive)'),
  ('CNC(=O)N1N[C@H](c2ccccc2)[C@@H]1c1ccccc1', '15% (inactive)'),
  ('O=C1C=CC2=Nc3ccccc3CCC2=C1', '-57% (inactive)'),
  ('O=C([O-])c1ccc([I+]c2ccccc2)cc1', '8% (inactive)'),
  ('O=C(NCCCCCCNC(=O)n1cc(F)c(=O)[nH]c1=O)NCCCOCCOCCOCCOCCOCCOCCOCCOCCOCCOCCOCCOCCOCCOCCOCCOCCOCCOCCOCCOCCOCCCNC(=O)C(O)C(O)C(O)C(O)CO (stereo unspecified)', '4% (inactive)'),
  ('NC1=CC(=O)c2ccccc2C1=O', '1% (inactive)'),
  ('Nc1c(O)c(Cl)cc(Cl)c1Cl', '-4% (inactive)'),
  ('N#CC(C#N)C(C#N)c1ccc(Cl)c(Cl)c1 (stereo unspecified)', '72% (active)'),
  ('CC1(COc2ccccc2OCC2(C)CO2)CO1 (stereo unspecified)', '2% (inactive)'),
  ('CC1=NC(=Cc2ccc(Cl)cc2)C(=O)N1n1c(-c2ccccc2)nc2ccccc2c1=O', '-10% (inactive)'),
  ('N#CSCC(=O)c1ccc(Cl)cc1', '60% (inactive)'),
  ('NS(=O)(=O)c1ccc(NC(=S)/N=C\C(C(=O)c2ccccc2)=C(\O)c2ccccc2)cc1', '-2% (inactive)'),
  ('Cc1ccnc2c1ccc1c(C)ccnc12', '-17% (inactive)'),
  ('COC(=O)/C=C1/Nc2ccc(Cl)cc2C(=O)NC1=O', '36% (inactive)'),
  ('Nc1n[n+](-c2ccccc2)no1', '16% (inactive)'),
  ('COc1ccc(OC)c2c(C(=O)O)c(C(C)c3ccccc3)ccc12 (stereo unspecified)', '3% (inactive)'),
  ('N#CCC1CC(=O)c2[nH]c3ccccc3c2C1 (stereo unspecified)', '-49% (inactive)'),
  ('COc1ccccc1C1SC(c2ccccc2)(c2ccccc2)OC1=O (stereo unspecified)', '-2% (inactive)'),
  ('Cc1cccc(/C=N/Nc2cc(C)c3ccccc3n2)n1', '10% (inactive)'),
  ('CC(=O)Nc1ccc2c(c1)[nH]c(=O)c1cc(Cl)ccc12', '18% (inactive)'),
  ('N#CSCc1ccc(Cl)c(CSC#N)c1', '4% (inactive)'),
  ('Oc1c(I)cc(Cl)c2cccnc12', '63% (inactive)'),
  ('Cc1occc1C(=S)Nc1ccc(Cl)c(C(=O)OC(C)C2CC2)c1 (stereo unspecified)', '16% (inactive)'),
  ('COc1cc(C(c2cc3c(cc2O)OCO3)N2CCOCC2)cc(OC)c1OC (stereo unspecified)', '-23% (inactive)');
